These entries and their values trace back to paper PMC4875998.

# System: Huh-7 cells
# experiment description: Cytotoxicity, CC50
# test conditions: read-out: Half maximal cytotoxic concentration (CC50) Huh-7; Huh-7 cells; value not marked with the 48 h footnote
assay metric: CC50 (µM)
// note: answer is a bare numeric in µM

In: Name the recorded CC50 for CC[C@H](C)[C@H]1O[C@]2(CC[C@@H]1C)C[C@@H]1C[C@@H](C/C=C(\C)[C@@H](O[C@H]3C[C@H](OC)[C@@H](O[C@H]4C[C@H](OC)[C@@H](O)[C@H](C)O4)[C@H](C)O3)[C@@H](C)/C=C/C=C3\CO[C@@H]4[C@H](O)C(C)=C[C@@H](C(=O)O1)[C@]34O)O2 [Ivermectin, 22,23-dihydroavermectin B1] .
Out: 10

* * *

# experiment description: Cytotoxicity (methylene blue / MTS assay), CC50
# test conditions: African green monkey, Vero-F cells
assay metric: CC50 at 4 days (µM)
Numeric only. Scale: µM

In: Quick one: CC50 at 4 days for CC[C@H](C)[C@H]1O[C@]2(CC[C@@H]1C)C[C@@H]1C[C@@H](C/C=C(\C)[C@@H](O[C@H]3C[C@H](OC)[C@@H](O[C@H]4C[C@H](OC)[C@@H](O)[C@H](C)O4)[C@H](C)O3)[C@@H](C)/C=C/C=C3\CO[C@@H]4[C@H](O)C(C)=C[C@@H](C(=O)O1)[C@]34O)O2 [Ivermectin, 22,23-dihydroavermectin B1] ?
Out: 23.6

* * *

# experiment description: Cytotoxicity (methylene blue / MTS assay), CC50
# test conditions: mouse, RAW 264.7 cells
assay metric: CC50 at 4 days (µM)
Write the number in µM without appending the unit.

1. C[C@@]1(O)[C@H](O)[C@@H](CO)O[C@H]1n1ccc(N)nc1=O; 37.6

In: Consider the compound shown here: CC[C@H](C)[C@H]1O[C@]2(CC[C@@H]1C)C[C@@H]1C[C@@H](C/C=C(\C)[C@@H](O[C@H]3C[C@H](OC)[C@@H](O[C@H]4C[C@H](OC)[C@@H](O)[C@H](C)O4)[C@H](C)O3)[C@@H](C)/C=C/C=C3\CO[C@@H]4[C@H](O)C(C)=C[C@@H](C(=O)O1)[C@]34O)O2 [Ivermectin, 22,23-dihydroavermectin B1] What is its recorded CC50 at 4 days?
Out: 0.8

* * *

# experiment description: Cytotoxicity (methylene blue / MTS assay), CC50
# test conditions: hamster, BHK cells
assay metric: CC50 at 4 days (µM)
Answer format: numeric, µM implied, no suffix.

1. C[C@@]1(O)[C@H](O)[C@@H](CO)O[C@H]1n1ccc(N)nc1=O; 238

In: For the molecule CC[C@H](C)[C@H]1O[C@]2(CC[C@@H]1C)C[C@@H]1C[C@@H](C/C=C(\C)[C@@H](O[C@H]3C[C@H](OC)[C@@H](O[C@H]4C[C@H](OC)[C@@H](O)[C@H](C)O4)[C@H](C)O3)[C@@H](C)/C=C/C=C3\CO[C@@H]4[C@H](O)C(C)=C[C@@H](C(=O)O1)[C@]34O)O2 [Ivermectin, 22,23-dihydroavermectin B1] , what CC50 at 4 days is on record?
Out: 1.5

* * *

# experiment description: Cytotoxicity, CC50
# test conditions: human, Half maximal cytotoxic concentration (CC50) Huh-7, Huh-7 cells; value not marked with the 48 h footnote
assay metric: CC50 (µM)
The figure you give is taken to be in µM; do not add the unit.

In: Requested field: CC50. Item: CC[C@H](C)[C@H]1O[C@]2(CC[C@@H]1C)C[C@@H]1C[C@@H](C/C=C(\C)[C@@H](O[C@H]3C[C@H](OC)[C@@H](O[C@H]4C[C@H](OC)[C@@H](O)[C@H](C)O4)[C@H](C)O3)[C@@H](C)/C=C/C=C3\CO[C@@H]4[C@H](O)C(C)=C[C@@H](C(=O)O1)[C@]34O)O2 [Ivermectin, 22,23-dihydroavermectin B1]
Out: 7.3
